tgt: 26S proteasome CT-L activity in lysate of HT29 (constitutive) vs Sultan/Thp1 (immunoproteasome) cells (Homo sapiens, UniProt P28062+P28074)
Construct: using 26S proteasome in the context of a cell lysate; endogenous in cells; host or cells: HT29 lysate (constitutive); Sultan or THP1 lysate (immunoproteasome)
Sequence (P28074 60-263): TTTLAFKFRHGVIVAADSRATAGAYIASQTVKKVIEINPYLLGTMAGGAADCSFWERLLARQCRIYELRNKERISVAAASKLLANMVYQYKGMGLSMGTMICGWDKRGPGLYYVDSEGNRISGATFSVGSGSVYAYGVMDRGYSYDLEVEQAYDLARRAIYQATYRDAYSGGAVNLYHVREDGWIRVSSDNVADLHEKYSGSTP
Sequence (P28062 73-276): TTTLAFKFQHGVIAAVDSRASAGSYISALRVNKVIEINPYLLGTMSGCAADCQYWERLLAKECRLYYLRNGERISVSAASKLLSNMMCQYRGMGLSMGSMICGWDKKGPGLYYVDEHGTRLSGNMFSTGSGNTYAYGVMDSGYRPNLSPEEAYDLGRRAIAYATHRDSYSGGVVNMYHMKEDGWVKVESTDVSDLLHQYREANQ
protocol description: CT-L EC50 with 26S proteasome in cell lysate (Lysate ratio)
Assay type: biochemical
condition context: HT29 lysate to Sultan/Thp1 lysate, >1 = prefers immunoproteasome
Experimental: Alternatively, the CT-L EC50 of a compound can be determined using 26S proteasome in the context of a cell lysate. Compound is added to lysate generated from cells that either predominantly express constitutive proteasome (e.g., HT29) or immunoproteasome (e.g., THP1). Again, the inhibitory preference is then based on the EC50 ratio (Lysate ratio).
measured endpoint: Lysate ratio (HT29:Sultan/Thp1)

>  <molecule>
C[C@@H](NC(=O)OCc1ccccc1)C(=O)N[C@@H](Cc1c[nH]c2ccccc12)C(=O)N[C@@H](Cc1ccc(O)cc1)C(=O)C1(C)CO1 (stereo partly shown)

>  <measured endpoint>
Lysate ratio (HT29:Sultan/Thp1)

>  <assay value>
>5.0

$$$$
>  <molecule>
CC(NC(=O)OCc1ccccc1)C(=O)N[C@@H](Cc1c[nH]c2ccccc12)C(=O)N[C@@H](Cc1ccc(O)cc1)C(=O)C1(C)CO1 (stereo partly shown)

>  <measured endpoint>
Lysate ratio (HT29:Sultan/Thp1)

>  <assay value>
>3.0

$$$$
>  <molecule>
CC(NC(=O)OCc1ccccc1)C(=O)N[C@@H](Cc1ccccc1)C(=O)N[C@H](C(=O)C1(C)CO1)c1ccccc1 (stereo partly shown)

>  <measured endpoint>
Lysate ratio (HT29:Sultan/Thp1)

>  <assay value>
>5.0

$$$$
>  <molecule>
C[C@H](NC(=O)OCc1ccccc1)C(=O)N[C@@H](Cc1c[nH]c2ccccc12)C(=O)N[C@H](C(=O)C1(C)CO1)c1ccccc1 (stereo partly shown)

>  <measured endpoint>
Lysate ratio (HT29:Sultan/Thp1)

>  <assay value>
>5.0

$$$$
>  <molecule>
CC(C)C[C@@H](NC(=O)OCc1ccccc1)C(=O)N[C@@H](Cc1c[nH]c2ccccc12)C(=O)N[C@@H](Cc1ccccc1)C(=O)C1(C)CO1 (stereo partly shown)

>  <measured endpoint>
Lysate ratio (HT29:Sultan/Thp1)

>  <assay value>
>5.0

$$$$

Dear colleague, please send me the reported Lysate ratio (HT29:Sultan/Thp1) for CC(C)CC(NC(=O)Nc1ccccc1)C(=O)N[C@@H](Cc1ccccc1)C(=O)N[C@@H](CC(C)C)C(=O)C1(C)CO1 (stereo partly shown) when you can.
<0.5

Report Lysate ratio (HT29:Sultan/Thp1), nothing else, for this molecule: CC(NC(=O)OCc1ccccc1)C(=O)N[C@@H](Cc1c[nH]c2ccccc12)C(=O)N[C@@H](Cc1ccccc1)C(=O)C1(C)CO1 (stereo partly shown)
>2.0

Return reported Lysate ratio (HT29:Sultan/Thp1). Input molecule: CC(C)CC(NC(=O)OCc1ccccc1)C(=O)N[C@@H](CC(C)C)C(=O)N[C@@H](CC(C)C)C(=O)C1(C)CO1 (stereo partly shown)
<0.5

// fetch Lysate ratio (HT29:Sultan/Thp1) given entry CC[C@H](C)C(NC(=O)OCc1ccccc1)C(=O)N[C@@H](Cc1c[nH]c2ccccc12)C(=O)N[C@@H](Cc1ccccc1)C(=O)C1(C)CO1 (stereo partly shown)
>3.0

Identify measured Lysate ratio (HT29:Sultan/Thp1) corresponding to CC(NC(=O)OCc1ccccc1)C(=O)N[C@@H](Cc1ccc(C(F)(F)F)cc1)C(=O)N[C@@H](Cc1ccccc1)C(=O)C1(C)CO1 (stereo partly shown)
>2.0
